Reported values of IC50 for individual entries
# Study target: C5aR (Homo sapiens (Human))
# Sequence (P21730 whole entry): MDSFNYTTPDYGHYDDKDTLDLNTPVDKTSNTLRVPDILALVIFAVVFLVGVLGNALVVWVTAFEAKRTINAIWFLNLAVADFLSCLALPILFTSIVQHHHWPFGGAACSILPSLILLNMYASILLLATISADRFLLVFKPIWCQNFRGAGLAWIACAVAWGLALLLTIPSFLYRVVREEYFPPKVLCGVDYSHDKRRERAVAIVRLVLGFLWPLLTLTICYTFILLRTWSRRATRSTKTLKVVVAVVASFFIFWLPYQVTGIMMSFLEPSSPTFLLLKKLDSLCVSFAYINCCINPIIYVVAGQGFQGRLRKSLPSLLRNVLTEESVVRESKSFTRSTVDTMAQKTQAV
# Method: Chemotaxis assay using U937 cells (C5aR mediated migration)
# Protocol conditions: read-out: Mig IC50

Guide cases for IC50, answers given:
Cc1cccc(OCC(C)C)c1-n1nc2c(c1-c1ccc(NC(N)=O)cc1)CN(CC1(C(F)(F)F)CCCC1)CC2 = 5 to 50 nM
COc1ccc(Cl)c(CN2CCc3nn(-c4c(C)cccc4OCC(C)C)c(-c4ccc(NC(N)=O)cc4)c3C2)c1 = 5 to 50 nM
Cc1ccc(F)cc1N1CCc2nn(-c3c(C)cccc3OCC(C)C)c(-c3ccc(NC(N)=O)cc3)c2C1 = 5 to 50 nM
Cc1cccc(OCC(C)C)c1-n1nc2c(c1-c1cc(F)c(NC(N)=O)cc1F)CN(c1ncccc1C(C)C)CC2 = ≤ 5 nM
Cc1cccc(OCC(C)C)c1-n1nc2c(c1-c1ccc(NC(N)=O)cc1)CN(Cc1cc(F)ccc1F)CC2 = 5 to 50 nM

## Input Output measured IC50 for this item: Cc1cccc(C)c1-n1nc2c(c1-c1cc(F)c(NC(N)=O)cc1F)CN(C(CO)c1ccccc1)CC2 (stereo not shown)
## Output 50 to 500 nM

## Input Kindly indicate its recorded IC50. Item: Cc1cc(-c2c3c(nn2-c2c(C)cccc2C)CCN(c2ncc(Cl)cc2Cl)C3)c(F)cc1NC(N)=O
## Output ≤ 5 nM

---

Entries and their measured pIC50 follow.
# Study target: C5aR (Homo sapiens (Human))
# Method: Chemotaxis assay using U937 cells (C5aR mediated migration)
# Format: cell-based
# Protocol conditions: read-out: Mig IC50
pIC50: −log10 of the molar value.

CCc1cccc(CC)c1-n1nc2c(c1-c1cc(F)c(NC(N)=O)cc1F)CN(Cc1cc(C(F)(F)F)ccc1C)CC2 [Example 1.036] = ≥ 8.30
Cc1cc(NC(N)=O)c(F)cc1-c1c2c(nn1-c1c(C)cccc1C)CCN(c1ccc(C(F)(F)F)cc1F)C2 [Example 1.117] = ≥ 8.30

## Input Answer with reported pIC50 of CCc1cccc(CC)c1-n1nc2c(c1-c1cc(F)c(NC(N)=O)cc1F)CN(c1ncc(Cl)cc1Cl)[C@@H](C)C2 [Example 1.013]
## Output ≥ 8.30

## Input Answer with reported pIC50 of CCc1cccc(CC)c1-n1nc2c(c1-c1cc(F)c(NC(N)=O)cc1F)CN(Cc1ccc(C#N)cc1C(F)(F)F)CC2 [Example 1.048]
## Output ≥ 8.30

## Input Hello, please tell me recorded pIC50 for this one: Cc1ccc(C(C)(C)O)nc1N1CCc2nn(-c3c(C)cccc3OCC(C)C)c(-c3ccc(NC(N)=O)cc3)c2C1 [Example 1.383]
## Output 6.30 to 7.30

## Input State, in one line, measured pIC50 of CCCCN1CCc2nn(-c3c(C)cccc3OCC(C)C)c(-c3ccc(NC(N)=O)c(F)c3)c2C1 [Example 1.231]
## Output 7.30 to 8.30

## Input Look up and report measured pIC50 for this entry: Cc1cccc(OCC(C)C)c1-n1nc2c(c1-c1ccc(NC(N)=O)cc1)CN(C(C)c1cccc(C(F)(F)F)c1)CC2 (stereo not shown) [Example 1.319]
## Output ≥ 8.30

---

# Study target: C5aR (Homo sapiens (Human))
# Method: Chemotaxis assay using U937 cells (C5aR mediated migration)
# Protocol conditions: read-out: Mig IC50
Quick reference: IC50 of the listed items.

As a guide, the following entries are already answered.
Cc1ccc(C(C)(C)C)cc1N1CCc2nn(-c3c(C)cccc3OCC(C)C)c(-c3ccc(C(N)=O)cc3)c2C1 [Example 1.445] = 5 to 50 nM
Cc1cccc(OCC(C)C)c1-n1nc2c(c1-c1ccc(NC(N)=O)c(C#N)c1)CN(c1ncc(C(F)(F)F)cc1F)CC2 [Example 1.226] = > 500 nM

## Input State its IC50 for this compound: CC(C)COc1ccccc1-n1nc2c(c1-c1cc(F)c(NC(N)=O)cc1F)CN(C(C)(C)c1ccccc1)CC2 [Example 1.199]
## Output ≤ 5 nM
